Data export: Ki values recorded with α2C (Homo sapiens).
Sequence (P18825 whole entry): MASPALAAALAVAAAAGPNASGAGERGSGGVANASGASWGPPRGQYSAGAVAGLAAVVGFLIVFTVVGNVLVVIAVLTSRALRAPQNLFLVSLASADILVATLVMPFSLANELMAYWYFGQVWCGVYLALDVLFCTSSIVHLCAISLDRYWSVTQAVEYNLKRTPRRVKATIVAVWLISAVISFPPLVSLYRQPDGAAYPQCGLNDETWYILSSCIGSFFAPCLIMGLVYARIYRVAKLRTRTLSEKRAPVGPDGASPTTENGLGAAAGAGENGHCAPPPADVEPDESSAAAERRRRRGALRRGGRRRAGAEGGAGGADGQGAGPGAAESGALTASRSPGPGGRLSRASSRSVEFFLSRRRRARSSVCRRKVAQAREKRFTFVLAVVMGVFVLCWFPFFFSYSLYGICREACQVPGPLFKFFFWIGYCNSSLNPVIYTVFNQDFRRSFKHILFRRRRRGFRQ
Readout: Ki (nM)

Molecule | Readout | Limit Sign | Reported Result
C=CCN(CC=C)CCc1c[nH]c2cccc(OC(C)=O)c12 | Ki | = | 748
C=CCN(CC=C)CCc1c(C)[nH]c2ccc(F)cc12 | Ki | = | 184
C=CCN(CC=C)CCc1c[nH]c2cccc(O)c12 [4-HO-DALT, 4-hydroxy-N,N-diallyltryptamine] | Ki | > | 10000
C=CCN(CC=C)CCc1c[nH]c2c(CC)cccc12 | Ki | = | 682
C=CCN(CC=C)CCc1c(C)[nH]c2ccc(OC)cc12 | Ki | = | 888

* * *

# System Name: α2A (Homo sapiens, UniProt P08913)
# Sequence (P08913 1-465): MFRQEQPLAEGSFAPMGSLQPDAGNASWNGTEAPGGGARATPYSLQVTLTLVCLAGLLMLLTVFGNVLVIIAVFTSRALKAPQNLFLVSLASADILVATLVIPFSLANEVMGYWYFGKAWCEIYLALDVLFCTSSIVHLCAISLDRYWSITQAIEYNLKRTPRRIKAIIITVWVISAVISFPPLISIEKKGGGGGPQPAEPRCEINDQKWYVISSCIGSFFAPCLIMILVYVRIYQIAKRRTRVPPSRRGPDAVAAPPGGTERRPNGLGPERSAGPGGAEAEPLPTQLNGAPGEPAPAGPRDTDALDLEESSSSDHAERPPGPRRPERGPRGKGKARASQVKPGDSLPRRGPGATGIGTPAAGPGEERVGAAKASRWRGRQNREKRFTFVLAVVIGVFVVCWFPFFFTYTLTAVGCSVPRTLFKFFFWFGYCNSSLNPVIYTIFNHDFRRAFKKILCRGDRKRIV

Smi | System Name | Unit Symbol | Ki
C=CCN(CC=C)CCc1c[nH]c2cccc(OC(C)=O)c12 | α2A (Homo sapiens, UniProt P08913) | nM | 342
C=CCN(CC=C)CCc1c[nH]c2c(CC)cccc12 | α2A (Homo sapiens, UniProt P08913) | nM | 141
C=CCN(CC=C)CCc1c(-c2ccccc2)[nH]c2ccccc12 | α2A (Homo sapiens, UniProt P08913) | nM | 85
C=CCN(CC=C)CCc1c(C)[nH]c2ccc(OC)cc12 | α2A (Homo sapiens, UniProt P08913) | nM | 189

* * *

Let's look at some molecules and their measured Ki.
# System Name: UniProt P28221
# Sequence (P28221 whole entry): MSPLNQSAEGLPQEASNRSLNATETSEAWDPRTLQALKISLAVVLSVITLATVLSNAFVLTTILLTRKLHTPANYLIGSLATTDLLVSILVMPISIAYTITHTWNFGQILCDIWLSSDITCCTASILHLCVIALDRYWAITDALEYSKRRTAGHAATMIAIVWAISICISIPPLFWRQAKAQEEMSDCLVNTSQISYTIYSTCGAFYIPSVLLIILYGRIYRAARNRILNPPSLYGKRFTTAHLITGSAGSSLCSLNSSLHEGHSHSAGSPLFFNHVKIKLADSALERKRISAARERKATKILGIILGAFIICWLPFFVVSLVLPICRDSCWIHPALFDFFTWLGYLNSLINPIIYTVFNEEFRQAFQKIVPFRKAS

Molecule | Unit Symbol | Ki
C=CCN(CC=C)CCc1c[nH]c2cccc(O)c12 [4-HO-DALT, 4-hydroxy-N,N-diallyltryptamine] | nM | 693
C=CCN(CC=C)CCc1c[nH]c2cccc(OC(C)=O)c12 | nM | 801
C=CCN(CC=C)CCc1c(C)[nH]c2ccc(OC)cc12 | nM | 900

* * *

# System Name: UniProt P25021
# Sequence (P25021 whole entry): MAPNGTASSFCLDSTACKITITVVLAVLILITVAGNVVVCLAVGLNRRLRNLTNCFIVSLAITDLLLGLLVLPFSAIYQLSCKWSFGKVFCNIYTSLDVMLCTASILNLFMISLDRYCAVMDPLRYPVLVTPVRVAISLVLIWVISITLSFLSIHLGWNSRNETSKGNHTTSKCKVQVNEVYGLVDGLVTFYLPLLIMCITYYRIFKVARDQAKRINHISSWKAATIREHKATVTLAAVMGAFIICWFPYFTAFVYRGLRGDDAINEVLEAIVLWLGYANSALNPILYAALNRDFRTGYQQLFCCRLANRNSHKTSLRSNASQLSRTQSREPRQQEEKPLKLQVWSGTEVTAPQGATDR
# Assay Procedure: NIMH PDSP radioligand competition binding, H2
# Test Settings: Binding Affinity (Ki, nM), [3H]tiotidine, cloned human receptor

Compound | Ki
C=CCN(CC=C)CCc1c[nH]c2cccc(O)c12 [4-HO-DALT, 4-hydroxy-N,N-diallyltryptamine] | > 10000 nM
C=CCN(CC=C)CCc1c(C)[nH]c2ccc(F)cc12 [5-F-2-Me-DALT, 5-fluoro-2-methyl-N,N-diallyltryptamine] | > 10000 nM
C=CCN(CC=C)CCc1c(C)[nH]c2ccc(OC)cc12 [5-MeO-2-Me-DALT, 5-methoxy-2-methyl-N,N-diallyltryptamine] | > 10000 nM
C=CCN(CC=C)CCc1c(-c2ccccc2)[nH]c2ccccc12 [2-Ph-DALT, 2-phenyl-N,N-diallyltryptamine] | 367 nM

* * *

pKi: −log10 of the molar value.
Data export: pKi values recorded with 5-HT7 (Homo sapiens).
Sequence (P34969 whole entry): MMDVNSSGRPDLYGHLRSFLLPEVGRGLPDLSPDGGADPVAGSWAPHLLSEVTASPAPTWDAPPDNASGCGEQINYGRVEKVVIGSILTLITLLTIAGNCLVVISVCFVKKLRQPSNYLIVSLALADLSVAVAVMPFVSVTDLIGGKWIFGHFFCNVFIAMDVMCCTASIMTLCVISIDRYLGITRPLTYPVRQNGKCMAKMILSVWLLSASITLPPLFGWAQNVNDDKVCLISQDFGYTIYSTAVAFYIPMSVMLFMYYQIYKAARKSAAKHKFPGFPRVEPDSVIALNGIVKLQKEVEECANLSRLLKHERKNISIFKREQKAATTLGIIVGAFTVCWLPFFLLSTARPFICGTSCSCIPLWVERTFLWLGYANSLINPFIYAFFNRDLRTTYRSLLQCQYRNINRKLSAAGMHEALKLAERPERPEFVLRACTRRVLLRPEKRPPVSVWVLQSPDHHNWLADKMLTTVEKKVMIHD
Readout: pKi

Smi | Readout | Reported Result
C=CCN(CC=C)CCc1c[nH]c2c(CC)cccc12 | pKi | < 5.00
C=CCN(CC=C)CCc1c(C)[nH]c2ccc(OC)cc12 | pKi | < 5.00
C=CCN(CC=C)CCc1c(-c2ccccc2)[nH]c2ccccc12 | pKi | < 5.00

* * *

Let's look at some compounds and their measured pKi.
# System Name: α1A (Homo sapiens, UniProt P35348)
# Sequence (P35348 1-466): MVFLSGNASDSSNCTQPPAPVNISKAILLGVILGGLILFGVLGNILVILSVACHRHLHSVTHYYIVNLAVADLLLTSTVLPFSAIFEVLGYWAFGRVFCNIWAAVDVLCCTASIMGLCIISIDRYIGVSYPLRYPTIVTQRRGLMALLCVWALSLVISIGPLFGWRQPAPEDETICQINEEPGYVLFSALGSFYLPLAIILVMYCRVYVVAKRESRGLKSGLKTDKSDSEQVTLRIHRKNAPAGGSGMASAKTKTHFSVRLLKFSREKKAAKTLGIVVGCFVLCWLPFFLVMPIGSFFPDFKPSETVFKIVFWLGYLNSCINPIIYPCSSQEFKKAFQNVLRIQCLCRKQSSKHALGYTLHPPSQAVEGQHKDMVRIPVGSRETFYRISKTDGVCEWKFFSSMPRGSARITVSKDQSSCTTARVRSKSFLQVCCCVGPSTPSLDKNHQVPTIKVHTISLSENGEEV
pKi: −log10 of the molar value.

Compound | pKi
C=CCN(CC=C)CCc1c[nH]c2cccc(O)c12 [4-HO-DALT, 4-hydroxy-N,N-diallyltryptamine] | < 5.00
C=CCN(CC=C)CCc1c[nH]c2cccc(OC(C)=O)c12 [4-AcO-DALT, 4-acetoxy-N,N-diallyltryptamine] | < 5.00
C=CCN(CC=C)CCc1c[nH]c2c(CC)cccc12 [7-Et-DALT, 7-ethyl-N,N-diallyltryptamine] | < 5.00
